MEAN CORPUSCULAR VOLUME values for the molecules below.
species on record: Rattus norvegicus; assay: DrugMatrix - Regimen: Daily Repeat; assay type: toxicity, organism-based, Sprague-Dawley; set-up: regimen Daily Repeat, gender Male, age 6-8 weeks; settings: in vivo, iv, 0 mg/kg, 72 h, tissue Blood, dose level Control, time 3 day, vehicle 100 % SALINE
READOUT_LABEL: MEAN CORPUSCULAR VOLUME (fL)

smiles_text=COC(=O)C[C@](O)(CCC(C)(C)O)C(=O)O[C@@H]1C(OC)=C[C@]23CCCN2CCc2cc4c(cc2[C@H]13)OCO4 result=61.57
smiles_text=Cc1c(N)nc([C@H](CC(N)=O)NC[C@H](N)C(N)=O)nc1C(=O)N[C@H](C(=O)N[C@H](C)[C@@H](O)[C@H](C)C(=O)N[C@H](C(=O)NCCc1nc(-c2nc(C(=O)NCCC[S+](C)C)cs2)cs1)[C@@H](C)O)[C@@H](O[C@@H]1O[C@@H](CO)[C@@H](O)[C@H](O)[C@@H]1O[C@H]1O[C@H](CO)[C@@H](O)[C@H](OC(N)=O)[C@@H]1O)c1c[nH]cn1.[Br-] result=63.23
smiles_text=CC(=O)[C@]1(O)Cc2c(O)c3c(c(O)c2[C@@H](O[C@H]2C[C@H](N)[C@H](O)[C@H](C)O2)C1)C(=O)c1ccccc1C3=O result=62.25
smiles_text=CO[C@@]12[C@H](COC(N)=O)C3=C(C(=O)C(C)=C(N)C3=O)N1C[C@@H]1N[C@@H]12 result=61.4

----------
ALANINE AMINOTRANSFERASE values for the compounds below.
species on record: Rattus norvegicus; experiment: DrugMatrix - Regimen: Daily Repeat; assay type: toxicity, organism-based, Sprague-Dawley; design: regimen Daily Repeat, gender Male, age 6-8 weeks; conditions: in vivo, po, 0 mg/kg, 72 h, tissue Plasma, route oral GAVAGE, dose level Control, time 3 day, vehicle 100 % SALINE
READOUT_LABEL: ALANINE AMINOTRANSFERASE (u/L)

compound="CC(CN1c2ccccc2Sc2ccccc21)N(C)C (stereo not given) [PROMETHAZINE]" unit_abbrev=u/L result=52.83
compound="O=[As][O-].[Na+] [SODIUM ARSENITE]" unit_abbrev=u/L result=45.33
compound="CCO [ALCOHOL]" unit_abbrev=u/L result=45.33
compound="CCN(CC)N=O [N-NITROSODIETHYLAMINE]" unit_abbrev=u/L result=83.33
compound="Cc1ccnc2c1NC(=O)c1cccnc1N2C1CC1 [NEVIRAPINE]" unit_abbrev=u/L result=50.67

----------
species on record: Rattus norvegicus; assay: DrugMatrix - Regimen: Daily Repeat; assay type: toxicity, organism-based, Sprague-Dawley; design: regimen Daily Repeat, gender Male, age 6-8 weeks; settings: in vivo, po, 0 mg/kg, 72 h, tissue Blood, route oral GAVAGE, dose level Control, time 3 day, […]
READOUT_LABEL: EOSINOPHIL (%)

compound="O=C(O)COC(=O)Cc1ccccc1Nc1c(Cl)cccc1Cl [ACECLOFENAC]" result=0
compound="CCC(C)(C)C(=O)O[C@H]1C[C@@H](C)C=C2C=C[C@H](C)[C@H](CC[C@@H]3C[C@@H](O)CC(=O)O3)[C@H]21 [SIMVASTATIN]" result=0.17
compound="Oc1ncnc2[nH]ncc12 [ALLOPURINOL]" result=0
compound="CC#C[C@]1(O)CC[C@H]2[C@@H]3CCC4=CC(=O)CCC4=C3[C@@H](c3ccc(N(C)C)cc3)C[C@@]21C [MIFEPRISTONE]" result=0.17
compound="CCOC(=O)C1=C(C)NC(C)=C(C(=O)OCC)C1c1ccccc1/C=C/C(=O)OC(C)(C)C [LACIDIPINE]" result=0.17
compound="CC(C)(c1ccc(O)cc1)c1ccc(O)cc1 [BISPHENOL A]" result=0.17
compound="c1ccc2c(c1)Nc1ccccc1S2 [PHENOTHIAZINE]" result=0
compound="O=C(Nc1ccc(Cl)c(Cl)c1)c1cc(Cl)cc(Cl)c1O [3,3',4',5-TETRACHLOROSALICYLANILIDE]" result=0
compound="CS(=O)(=O)c1ccc(C2=C(c3ccccc3)C(=O)OC2)cc1 [ROFECOXIB]" result=0
compound="C#C[C@]1(O)CC[C@H]2[C@@H]3CCC4=CC(=O)CC[C@@H]4[C@H]3CC[C@@]21C [NORETHINDRONE]" result=0.17
compound="Cc1cccc(C)c1NC(=O)C(C)N (centres undefined) [TOCAINIDE]" result=0.33
compound="COC(=O)Nc1nc2ccc(C(=O)c3ccccc3)cc2[nH]1 [MEBENDAZOLE]" result=0
compound="COc1ccccc1OCCNCC(O)COc1cccc2[nH]c3ccccc3c12 (centres undefined) [CARVEDILOL]" result=0
compound=CO[C@H]1O[C@@H]2O[C@@]3(C)CC[C@H]4[C@H](C)CC[C@@H]([C@H]1C)[C@@]24OO3 result=1

----------
species on record: Rattus norvegicus; test: DrugMatrix - Regimen: Daily Repeat; assay type: toxicity, organism-based, Sprague-Dawley; set-up: regimen Daily Repeat, gender Male, age 6-8 weeks; details: in vivo, po, 0 mg/kg, 120 h, tissue Plasma, route oral GAVAGE, dose level Control, time 5 day, […]
READOUT_LABEL: POTASSIUM (MEQ/L)

compound=CC#C[C@]1(O)CC[C@H]2[C@@H]3CCC4=CC(=O)CCC4=C3[C@@H](c3ccc(N(C)C)cc3)C[C@@]21C readout_label=POTASSIUM result=5.72
compound=CS(=O)(=O)c1ccc(C2=C(c3ccccc3)C(=O)OC2)cc1 readout_label=POTASSIUM result=5.34
compound=CCC(C)(C)C(=O)O[C@H]1C[C@@H](C)C=C2C=C[C@H](C)[C@H](CC[C@@H]3C[C@@H](O)CC(=O)O3)[C@H]21 readout_label=POTASSIUM result=5.72
compound=COC(=O)Nc1nc2ccc(C(=O)c3ccccc3)cc2[nH]1 readout_label=POTASSIUM result=5.13
compound="Cc1cccc(C)c1NC(=O)C(C)N (stereo not drawn) [TOCAINIDE]" readout_label=POTASSIUM result=5.78
compound=CO[C@H]1O[C@@H]2O[C@@]3(C)CC[C@H]4[C@H](C)CC[C@@H]([C@H]1C)[C@@]24OO3 readout_label=POTASSIUM result=5.92
compound=Oc1ncnc2[nH]ncc12 readout_label=POTASSIUM result=6.36
compound="O=C(Nc1ccc(Cl)c(Cl)c1)c1cc(Cl)cc(Cl)c1O [3,3',4',5-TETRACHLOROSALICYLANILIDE]" readout_label=POTASSIUM result=5.97

----------
LIPASE values for the compounds below.
species: Rattus norvegicus; experiment: DrugMatrix - Regimen: Daily Repeat; type: toxicity, organism-based, Sprague-Dawley; parameters: regimen Daily Repeat, gender Male, age 6-8 weeks; settings: in vivo, po, 0 mg/kg, 120 h, tissue Plasma, route oral GAVAGE, dose level Control, time 5 day, vehicle 100 % WATER
READOUT_LABEL: LIPASE (u/L)

compound=Cc1cn([C@H]2C=C[C@@H](CO)O2)c(=O)[nH]c1=O readout_label=LIPASE unit_abbrev=u/L result=9.5
compound=C[N+](C)(C)CCOC(N)=O.[Cl-] readout_label=LIPASE unit_abbrev=u/L result=9.5
compound=CC(Cl)(Cl)Cl readout_label=LIPASE unit_abbrev=u/L result=10.5
compound=CCN(CC)C(=S)SSC(=S)N(CC)CC readout_label=LIPASE unit_abbrev=u/L result=10.83
compound="NN [HYDRAZINE]" readout_label=LIPASE unit_abbrev=u/L result=11.5
compound=CCC1(c2ccccc2)C(=O)NC(=O)NC1=O readout_label=LIPASE unit_abbrev=u/L result=11.5
compound=Cc1cc(C(C)(C)C)c(O)c(C)c1CC1=NCCN1 readout_label=LIPASE unit_abbrev=u/L result=9.83
compound=C1CCN2C[C@@H]3C[C@@H](CN4CCCC[C@@H]34)[C@H]2C1 readout_label=LIPASE unit_abbrev=u/L result=10.5

----------
organism: Rattus norvegicus; assay: DrugMatrix - Regimen: Daily Repeat; assay type: toxicity, organism-based, Sprague-Dawley; set-up: regimen Daily Repeat, gender Male, age 6-8 weeks; settings: in vivo, po, 0 mg/kg, 72 h, tissue Plasma, route oral GAVAGE, dose level Control, time 3 day, vehicle 100 % SALINE
READOUT_LABEL: URIC ACID (mg/dL)

compound=CCN(CC)N=O result=2.03
compound=Cc1ccnc2c1NC(=O)c1cccnc1N2C1CC1 result=1.42
compound=CCO result=1
compound="CC(CN1c2ccccc2Sc2ccccc21)N(C)C (stereo not given)" result=1.9
compound="O=[As][O-].[Na+] [SODIUM ARSENITE]" result=1

----------
species: Rattus norvegicus; test: DrugMatrix - Regimen: Daily Repeat; type: toxicity, organism-based, Sprague-Dawley; parameters: regimen Daily Repeat, gender Male, age 6-8 weeks; conditions: in vivo, po, 0 mg/kg, 120 h, tissue Blood, route oral GAVAGE, dose level Control, time 5 day, […]
READOUT_LABEL: NEUTROPHIL (%)

compound=CCC(C)(C)C(=O)O[C@H]1C[C@@H](C)C=C2C=C[C@H](C)[C@H](CC[C@@H]3C[C@@H](O)CC(=O)O3)[C@H]21 result=8.17
compound="Cc1cccc(C)c1NC(=O)C(C)N (stereo not drawn) [TOCAINIDE]" result=5.5
compound=O=C(O)COC(=O)Cc1ccccc1Nc1c(Cl)cccc1Cl result=10.33

Origin of the recorded values: ChEMBL document CHEMBL3885881
